Test system: Digitaria ciliaris
Experiment: Soil treatment test (Test Example 2)
Type: in vivo
Settings: spray amount 31 g/ha, four weeks after
REPORTED_ENDPOINT: Herbicidal ratio Digitaria ciliaris (%)
Respond with the bare value in %.

Which Herbicidal ratio Digitaria ciliaris is listed for "Cc1ccc(S(=O)(=O)Oc2c(-c3ccc(C(F)(F)F)cc3S(C)(=O)=O)cnn(C)c2=O)cc1" ?
40

Which Herbicidal ratio Digitaria ciliaris is listed for "CC(=O)Oc1c(-c2ccc(C(F)(F)F)cc2S(C)(=O)=O)cnn(C)c1=O" ?
0

Which Herbicidal ratio Digitaria ciliaris is listed for CC(OC(=O)C(C)C)Oc1c(-c2ccc(C(F)(F)F)cc2S(C)(=O)=O)cnn(C)c1=O (stereo not shown) ?
100

Which Herbicidal ratio Digitaria ciliaris is listed for "Cn1ncc(-c2ccc(C(F)(F)F)cc2S(C)(=O)=O)c(O)c1=O" ?
0
